Test system: S. epidermis biofilm
Assay Method Text: S. epidermis biofilm inhibition, optical density, test/control
Experimental Setup: Staphylococcus epidermidis, read-out: S. epidermis Biofilm inhibition 100 μM vs. (−) Control, 100 μM; growth of biofilm test/control by optical density
Cut-off 70% on activity at 100 µM, inclusive. At or above means t; below means f.

- Molecule Smiles: "C=CCn1c(SCC)nc2c(c1=O)C(C)(C)Cc1cc(OCCN(CC)CC)ccc1-2"
  Label Class: "f"
- Molecule Smiles: "COCCSc1nc(OCC2OCCO2)c2c(n1)-c1ccccc1CC2(C)C"
  Label Class: "t"
- Molecule Smiles: "C=CCn1c(NCC)nc2c(c1=O)C1(CCCCC1)Cc1ccccc1-2"
  Label Class: "f"
- Molecule Smiles: "C=CCn1c(SCC)nc2c(c1=O)C(C)(C)Cc1cc(OCCN3CCOCC3)ccc1-2"
  Label Class: "t"

[ask] Given C=CCn1c(SCc2ccc(OC)cc2)nc2c(c1=O)C1(CCCCC1)Cc1ccccc1-2 , state whether its activity at 100 µM is at least 70%.
[reply] t

[ask] Determine whether this compound has activity at 100 µM no lower than 70%: CCSc1nc2c(c(=O)n1C)C(C)(C)Cc1ccc(OC)cc1-2
[reply] f

[ask] Could you please find out whether COCCOCCOc1nc(SCCOC)nc2c1C(C)(C)Cc1ccccc1-2 has activity at 100 µM that meets 70% or exceeds it?
[reply] t

====

System: E. coli flagellin (fliC)
Assay Method Text: microbe, parasite or virus in culture
Format: cell-based
Experimental Setup: Escherichia coli, 6 h, read-out: E. coli flagellin production, Relative Level vs. Control, 5 μM
Measured Quantity: activity at 5 µM (%)
Just the number in %, nothing appended.

Examples from the recorded data:
- Molecule Smiles: "COc1ccc2c(c1)CC(C)(C)c1c-2nc(SCC(F)(F)F)n(C)c1=O"
  Reading Unit: "%"
  activity at 5 µM: 36.2
- Molecule Smiles: "COc1ccc2c(c1)CC(C)(C)c1c-2nc(OCC(F)(F)F)n(C)c1=O"
  Reading Unit: "%"
  activity at 5 µM: 24.4
- Molecule Smiles: "COc1ccc2c(c1)CC(C)(C)c1c(OC)nc(SCC(F)(F)F)nc1-2"
  Reading Unit: "%"
  activity at 5 µM: 63.4

From here, focus on the item given below.
The measured activity at 5 µM associated with COc1ccc2c(c1)CC(C)(C)c1c-2nc(NCC(F)(F)F)n(C)c1=O reads 19.6

====

System: E. coli flagellin (fliC)
Assay Method Text: microbe, parasite or virus in culture
Assay type: cell-based
Experimental Setup: Escherichia coli, 6 h, read-out: E. coli flagellin production, Relative Level vs. Control, 5 μM
Just a reminder that ties go to not fulfilled: only activity at 5 µM strictly below 30% counts as fulfilled.

Worked cases, answers included:
- Compound: "COc1ccc2c(c1)CC(C)(C)c1c-2nc(S)n(C)c1=O [IVG-00608-00A01]"
  Label Class: "not fulfilled"
- Compound: "COc1ccc2c(c1)CC(C)(C)c1c-2nc(N(C)CCO)n(C)c1=O [IVG-00612-00A01]"
  Label Class: "fulfilled"
- Compound: "COc1ccc2c(c1)CC(C)(C)c1c-2nc(SCC(F)(F)F)[nH]c1=O [IVG-00601-00A01]"
  Label Class: "not fulfilled"
- Compound: "COc1ccc2c(c1)CC(C)(C)c1c-2nc(NCCO)n(C)c1=O [IVG-00610-00A01]"
  Label Class: "not fulfilled"
- Compound: "CCNc1nc2c(c(=O)n1C)C(C)(C)Cc1cc(OC)ccc1-2 [IVG-00613-00A01]"
  Label Class: "not fulfilled"

[ask] Does the reported activity at 5 µM of the following compound sit strictly below 30%? COc1ccc2c(c1)-c1nc(SCC(F)(F)F)n(C)c(=O)c1C(C)(C)C2 [CCG-211790]
[reply] not fulfilled

====

Items are presented alongside their recorded activity at 10 µM.
Tested on: S. aureus biofilm
Assay Method Text: S. aureus biofilm inhibition, optical density, test/control
Format: cell-based, Staphylococcus aureus
Experimental Setup: Staphylococcus aureus, 10 μM; growth of biofilm test/control by optical density
Only the number, expressed in %, is required.

Look over these answered cases.
- Molecule Smiles: "C=CCn1c(SCC(F)(F)F)nc2c(c1=O)C(C)(C)Cc1ccc(OC)cc1-2"
  Measured Value: 60.4
- Molecule Smiles: "C=CCn1c(SCCOC)nc2c(c1=O)C1(CCN(C=O)CC1)Cc1ccccc1-2"
  Measured Value: 101
- Molecule Smiles: "C=CCn1c(SCC)nc2c(c1=O)C(C)(C)Cc1cc(OCCN3CCOCC3)ccc1-2"
  Measured Value: 73.4
- Molecule Smiles: "C=CCSc1nc2c(c(=O)n1CC=C)C(C)(C)Cc1cc(OC)ccc1-2"
  Measured Value: 63.1
- Molecule Smiles: "C=CCn1c(SCC)nc2c(c1=O)C(C)(C)Cc1cc(OC(C)C)ccc1-2"
  Measured Value: 52.3
- Molecule Smiles: "C=CCn1c(SCCOC)nc2c(c1=O)C1(CCNCC1)Cc1ccccc1-2"
  Measured Value: 110
- Molecule Smiles: "C=CCn1c(SCC)nc2c(c1=O)C(C)(C)Cc1cc(OCC#N)ccc1-2"
  Measured Value: 56.5
- Molecule Smiles: "C=CCn1c(SCC)nc2c(c1=O)C(C)(C)Cc1ccc(OC)cc1-2"
  Measured Value: 51.3
- Molecule Smiles: "C=CCn1c(SCCOC)nc2c(c1=O)C1(CCN(C(=O)CCCC)CC1)Cc1ccccc1-2"
  Measured Value: 52.8

Here is the next item to consider.
Lookup result for C=CCn1c(SCCOC)nc2c(c1=O)C(C)(C)Cc1cc(C(=O)OC)ccc1-2 ; measured activity at 10 µM: 29.3
